Assay read-out IC50 on Poly [ADP-ribose] polymerase tankyrase-1 (Homo sapiens, UniProt O95271); records merged from the literature.
MEASUREMENT KIND: IC50 (nM)

COc1ccc(C(=O)C2CCN(CC(=O)NCc3nc4c(c(=O)[nH]3)COCC4)CC2)cc1Cl
29
O=C(N[C@H]1CC[C@@]2(CCN(c3ccc(F)cc3Cl)C2=O)CC1)c1cnn2ccc(N3CCNCC3)nc12
8.2
CC1CN(C(=O)c2nc[nH]c2C(=O)N[C@H]2CC[C@@]3(CCN(c4ccc(F)cc4Cl)C3=O)CC2)CCS(=O)(=O)C1 (some centres unmarked)
700
CCN(c1ccc(F)cc1Cl)C(=O)[C@H]1CC[C@H](NC(=O)c2cnn3cccnc23)CC1
87

P = CCC(C)C1Cc2[nH]c(=O)c3ccccc3c2CO1 (centres unmarked)
Q = Cc1cccc2c(=O)[nH]c3c(c12)COC(C(C)(C)C)C3 (racemic)
Field: lower recorded IC50 (choose P or Q ) Your answer should be the label attached to the chosen record. Q
(Q: 21.2 nM, P: 56.8 nM)
